target: recombinant P. falciparum M1 aminopeptidase (rPfA-M1); assay: Enzymatic analysis: aminopeptidase activity with fluorogenic peptide substrates (NHMec release) and inhibition; details: inhibition of rPfA-M1, in the presence of substrate
Readout name: pKi
// field semantics: pKi = negative decimal log of concentration (mol/L)

Data request: Give the reported pKi for NC(CCc1ccccc1)P(=O)(O)CC(Cc1ccccc1)C(=O)O (stereo not shown) [Co4, hPheP[CH2]Phe] (system: recombinant P. falciparum M1 aminopeptidase (rPfA-M1)).
Data returned: 7.11
